target_desc: FZD7 receptor of HEK293-TB cells (human, UniProt O75084 33-574)
assay_info: cell-based or functional assay
Measured Reduction in fold potency vs. dimer of individual entries
The response must be a number in fold with no trailing unit.

Some entries whose results are on file:
                                     binder                     measurement_name  value
0  Ac-LPSDDLEFWCHVAY-NH2 (also: homodimer via Cys10 disulfide) [dFz7-21-M13A]  Reduction in fold potency vs. dimer     82
1  Ac-LPSDDAEFWCHVMY-NH2 (also: homodimer via Cys10 disulfide) [dFz7-21-L6A]  Reduction in fold potency vs. dimer    642
2  Ac-LPSDDLEFWCHVMA-NH2 (also: homodimer via Cys10 disulfide) [dFz7-21-Y14A]  Reduction in fold potency vs. dimer    267

Report Reduction in fold potency vs. dimer for Ac-LPSDDLEFACHVMY-NH2 (also: homodimer via Cys10 disulfide) [dFz7-21-W9A] please.
58
